Data origin: the supplement of paper PMC10567573

B1: ZNF193 (parent)
chain: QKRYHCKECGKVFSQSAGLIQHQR

Variants of: B1
TEST_DESCRIPTION: protein stability index of a GFP-peptide fusion (GPS, HEK-293T) (PSI 1-6); higher = more stable;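 further: lentivirally expressed fusions sorted by FACS into six bins by GFP to DsRed ratio, PSI derived from sequencing read proportions per bin multiplied by bin number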
ASSAY_CONTEXT: c terminus: a fixed tail appended
Listing of entries alongside the reported protein stability index.
PROPERTY_MEASURED: protein stability index

[[record]]
mutation_spec = "G10K"
property_measured = "protein stability index"
reported_measurement = 1.98

[[record]]
mutation_spec = "K2F"
property_measured = "protein stability index"
reported_measurement = 2.31

[[record]]
mutation_spec = "C9I"
property_measured = "protein stability index"
reported_measurement = 2.83

[[record]]
mutation_spec = "G10C"
property_measured = "protein stability index"
reported_measurement = 1.83

[[record]]
mutation_spec = "F13N"
property_measured = "protein stability index"
reported_measurement = 1.67

[[record]]
mutation_spec = "Y4C"
property_measured = "protein stability index"
reported_measurement = 2.41

[[record]]
mutation_spec = "L19A"
property_measured = "protein stability index"
reported_measurement = 2.45

[[record]]
mutation_spec = "G10I"
property_measured = "protein stability index"
reported_measurement = 1.51

[[record]]
mutation_spec = "K11C"
property_measured = "protein stability index"
reported_measurement = 2.3

[[record]]
mutation_spec = "S14T"
property_measured = "protein stability index"
reported_measurement = 3.06

[[record]]
mutation_spec = "H22A"
property_measured = "protein stability index"
reported_measurement = 1.16

[[record]]
mutation_spec = "Y4R"
property_measured = "protein stability index"
reported_measurement = 1.98

[[record]]
mutation_spec = "C9E"
property_measured = "protein stability index"
reported_measurement = 3.64

[[record]]
mutation_spec = "C6Y"
property_measured = "protein stability index"
reported_measurement = 1.73

[[record]]
mutation_spec = "E8H"
property_measured = "protein stability index"
reported_measurement = 3.81

[[record]]
mutation_spec = "C6Q"
property_measured = "protein stability index"
reported_measurement = 2.28

[[record]]
mutation_spec = "K7H"
property_measured = "protein stability index"
reported_measurement = 2.94

[[record]]
mutation_spec = "Q1H"
property_measured = "protein stability index"
reported_measurement = 2.73

[[record]]
mutation_spec = "V12A"
property_measured = "protein stability index"
reported_measurement = 2.43

[[record]]
mutation_spec = "L19D"
property_measured = "protein stability index"
reported_measurement = 2.35

[[record]]
mutation_spec = "F13M"
property_measured = "protein stability index"
reported_measurement = 1.82

[[record]]
mutation_spec = "C6P"
property_measured = "protein stability index"
reported_measurement = 2.18

[[record]]
mutation_spec = "S14Q"
property_measured = "protein stability index"
reported_measurement = 2.86

[[record]]
mutation_spec = "R24S"
property_measured = "protein stability index"
reported_measurement = 2.43

[[record]]
mutation_spec = "S16I"
property_measured = "protein stability index"
reported_measurement = 2.98

[[record]]
mutation_spec = "L19E"
property_measured = "protein stability index"
reported_measurement = 2.31

[[record]]
mutation_spec = "S16C"
property_measured = "protein stability index"
reported_measurement = 2.9

[[record]]
mutation_spec = "R24V"
property_measured = "protein stability index"
reported_measurement = 2.28

[[record]]
mutation_spec = "E8Q"
property_measured = "protein stability index"
reported_measurement = 2.91

[[record]]
mutation_spec = "L19M"
property_measured = "protein stability index"
reported_measurement = 2.35

[[record]]
mutation_spec = "I20A"
property_measured = "protein stability index"
reported_measurement = 3.06

[[record]]
mutation_spec = "S16Y"
property_measured = "protein stability index"
reported_measurement = 3.8

[[record]]
mutation_spec = "G18H"
property_measured = "protein stability index"
reported_measurement = 2.84

[[record]]
mutation_spec = "Q15R"
property_measured = "protein stability index"
reported_measurement = 3.08

[[record]]
mutation_spec = "S14E"
property_measured = "protein stability index"
reported_measurement = 3.77

[[record]]
mutation_spec = "K7F"
property_measured = "protein stability index"
reported_measurement = 2.53

[[record]]
mutation_spec = "F13S"
property_measured = "protein stability index"
reported_measurement = 2.12

[[record]]
mutation_spec = "K11D"
property_measured = "protein stability index"
reported_measurement = 1.88

[[record]]
mutation_spec = "H5F"
property_measured = "protein stability index"
reported_measurement = 3.01

[[record]]
mutation_spec = "K7G"
property_measured = "protein stability index"
reported_measurement = 2.92

